The origin of these recorded values is patent US10689354B2.

- system.tested: androgen receptor (AR-LBD) (Rattus norvegicus)
- Construct: 5 μL of 2×AR-LBD/Fluoromone AL Red Complex contained in the kit; purchased Invitrogen
- method.notes: Evaluation of androgen receptor affinity (PolarScreen Androgen Receptor Competitor Assay Kit, Red; fluorescence polarization)
- condition.label: 22° C. for 5 hours, relative to binding rate of 1 μM DHT, read-out: AR affinity (pEC50) (converted)
measure.name: EC50 (nM)
Supply the numeric figure in nM, leaving out any unit text.

Use these answered entries as a reference point.
- line.notation: "Cc1sc(N(CCc2ccc(OC(F)(F)F)cc2)Cc2ccccc2)nc1C(=O)NS(C)(=O)=O"
  unit.annotation: "nM"
  EC50: 39.8
- line.notation: "CS(=O)(=O)NC(=O)c1nc(N(Cc2ccc(OC(F)(F)F)cc2)c2ccc(C#N)cc2)sc1Cl"
  unit.annotation: "nM"
  EC50: 39.8
- line.notation: "Cc1sc(N(Cc2ncc(C(F)(F)F)cc2F)c2ccc(C#N)cc2)nc1C(=O)NS(C)(=O)=O"
  unit.annotation: "nM"
  EC50: 63.1

# evaluate next
input: May I ask what EC50 has been recorded for Cc1sc(N(CCC2CCCCC2)Cc2ccc(OC(F)(F)F)cc2)nc1C(=O)NS(C)(=O)=O ?
output: 100

* * *

- system.tested: human androgen receptor (Homo sapiens, UniProt P10275)
- Construct: expressed in transfected cells; host or cells: HEK293
- Sequence (P10275 whole entry): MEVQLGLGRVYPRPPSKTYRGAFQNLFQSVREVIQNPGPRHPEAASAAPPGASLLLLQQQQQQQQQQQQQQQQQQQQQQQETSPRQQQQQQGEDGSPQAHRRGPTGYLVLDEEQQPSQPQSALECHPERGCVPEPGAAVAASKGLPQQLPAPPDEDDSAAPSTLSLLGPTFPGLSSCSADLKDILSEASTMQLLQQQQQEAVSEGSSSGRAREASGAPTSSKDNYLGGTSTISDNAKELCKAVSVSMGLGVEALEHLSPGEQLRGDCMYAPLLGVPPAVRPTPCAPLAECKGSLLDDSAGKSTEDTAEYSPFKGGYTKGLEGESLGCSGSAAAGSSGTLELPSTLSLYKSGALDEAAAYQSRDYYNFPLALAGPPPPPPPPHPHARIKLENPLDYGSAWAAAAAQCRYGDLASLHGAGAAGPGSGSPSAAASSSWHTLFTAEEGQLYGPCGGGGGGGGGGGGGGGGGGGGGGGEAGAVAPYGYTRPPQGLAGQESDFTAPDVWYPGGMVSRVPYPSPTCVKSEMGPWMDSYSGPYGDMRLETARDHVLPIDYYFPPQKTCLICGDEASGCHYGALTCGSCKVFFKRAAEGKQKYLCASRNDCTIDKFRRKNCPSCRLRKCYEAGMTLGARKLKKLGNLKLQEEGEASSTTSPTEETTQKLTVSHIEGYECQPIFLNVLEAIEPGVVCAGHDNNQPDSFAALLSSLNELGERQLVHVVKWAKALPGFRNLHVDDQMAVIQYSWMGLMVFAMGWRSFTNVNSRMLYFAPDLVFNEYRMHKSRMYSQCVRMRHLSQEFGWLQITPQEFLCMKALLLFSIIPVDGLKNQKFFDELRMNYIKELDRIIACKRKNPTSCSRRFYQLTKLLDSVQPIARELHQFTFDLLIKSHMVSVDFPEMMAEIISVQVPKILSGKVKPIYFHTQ
- method.notes: Reporter assay of an androgen receptor responsive sequence (luciferase, transiently transfected HEK293 cells)
- Assay type: cell-based
- condition.label: 24 hours incubation, relative to activity of 100 nM DHT, read-out: AR transcriptive activity (pEC50) (converted)
EC50 listing for selected compounds.
Supply the numeric figure in µM, leaving out any unit text.

Use these answered entries as a reference point.
- line.notation: "Cc1oc(N(CCc2ccc(C#N)cc2)Cc2ccc(C(F)(F)F)nc2)nc1C(=O)NS(C)(=O)=O"
  unit.annotation: "µM"
  EC50: 5.01
- line.notation: "Cc1sc(N(CCc2ccc(Cl)cc2)Cc2ccc(OC(F)(F)F)cc2)nc1C(=O)NS(=O)(=O)Cc1cccnc1"
  unit.annotation: "µM"
  EC50: 0.158
- line.notation: "Cc1sc(N(Cc2cc(F)cc(OC(F)F)c2)c2ccc(C#N)cc2)nc1C(=O)NS(C)(=O)=O"
  unit.annotation: "µM"
  EC50: 0.0398
- line.notation: "CS(=O)(=O)NC(=O)c1nc(N(Cc2ccc(OC(F)(F)F)cc2)c2ccc(C#N)cc2)sc1Br"
  unit.annotation: "µM"
  EC50: 0.0794

# evaluate next
input: May I ask what EC50 has been recorded for Cc1sc(N(Cc2ccnc(C(F)(F)F)c2)c2ccc(C#N)cc2)nc1C(=O)NS(C)(=O)=O ?
output: 3.98

* * *

- system.tested: human androgen receptor (Homo sapiens, UniProt P10275)
- Construct: expressed in transfected cells; host or cells: HEK293
- method.notes: Reporter assay of an androgen receptor responsive sequence (luciferase, transiently transfected HEK293 cells)
- Assay type: cell-based
- condition.label: 24 hours incubation, relative to activity of 100 nM DHT, read-out: AR transcriptive activity (pEC50) (converted)
measure.name: EC50 (nM)
Supply the numeric figure in nM, leaving out any unit text.

Use these answered entries as a reference point.
- line.notation: "Cc1sc(N(Cc2ncccc2O)c2ccc(C#N)cc2)nc1C(=O)NS(C)(=O)=O"
  quantitative.readout: 1260
- line.notation: "Cc1sc(N(CCc2ccc(Cl)cc2)Cc2ccccc2)nc1C(=O)NS(C)(=O)=O"
  quantitative.readout: 126
- line.notation: "Cc1sc(N(Cc2cccc(C(F)F)c2)c2ccc(C#N)cc2)nc1C(=O)NS(C)(=O)=O"
  quantitative.readout: 50.1
- line.notation: "Cc1sc(N(Cc2ccc(Br)cc2F)c2ccc(C#N)cc2)nc1C(=O)NS(C)(=O)=O"
  quantitative.readout: 63.1
- line.notation: "Cc1sc(N(Cc2cccc(Cl)c2F)c2ccc(C#N)cc2)nc1C(=O)NS(C)(=O)=O"
  quantitative.readout: 31.6
- line.notation: "COc1ccccc1CN(c1ccc(C#N)cc1)c1nc(C(=O)NS(C)(=O)=O)c(C)s1"
  quantitative.readout: 501
- line.notation: "CS(=O)(=O)NC(=O)c1nc(N(Cc2ccc(F)cc2)c2ccc(C#N)cc2)sc1Br"
  quantitative.readout: 39.8
- line.notation: "CS(=O)(=O)NC(=O)c1nc(N(Cc2ccc(Cl)cn2)c2ccc(C#N)cc2)sc1Br"
  quantitative.readout: 79.4
- line.notation: "Cc1sc(N(Cc2cccc(F)c2F)c2ccc(C#N)cc2)nc1C(=O)NS(C)(=O)=O"
  quantitative.readout: 50.1
- line.notation: "Cc1sc(N(Cc2ccc(C3CC3)nc2)c2ccc(C#N)cc2)nc1C(=O)NS(C)(=O)=O"
  quantitative.readout: 200

input: May I ask what EC50 has been recorded for Cc1sc(N(CCc2ccc(Cl)cc2)Cc2cccc(F)c2)nc1C(=O)NS(C)(=O)=O ?
output: 50.1

input: May I ask what EC50 has been recorded for Cc1sc(N(Cc2cc3ccccc3cn2)c2ccc(C#N)cc2)nc1C(=O)NS(C)(=O)=O ?
output: 316

input: May I ask what EC50 has been recorded for Cc1sc(N(CCc2ccc3c(c2)OCO3)Cc2ccccc2)nc1C(=O)NS(C)(=O)=O ?
output: 501

* * *

- system.tested: human androgen receptor (Homo sapiens, UniProt P10275)
- Construct: expressed in transfected cells; host or cells: HEK293
- method.notes: Reporter assay of an androgen receptor responsive sequence (luciferase, transiently transfected HEK293 cells)
- Assay type: cell-based
- condition.label: 24 hours incubation, relative to activity of 100 nM DHT, read-out: AR transcriptive activity (pEC50) (converted)
Recorded EC50 split into classes group 1 = under 200 nM, group 2 = from 200 nM up to 600 nM, group 3 = 600 nM and over

- molecule: "CCc1sc(N(Cc2ccccc2)c2ccc(C#N)cc2)nc1C(=O)NS(C)(=O)=O"
  system.tested: "human androgen receptor (Homo sapiens, UniProt P10275)"
  answer.label: "group 1"
- molecule: "Cc1sc(N(Cc2ccccc2)c2ccc(C(F)(F)F)nc2)nc1C(=O)NS(C)(=O)=O"
  system.tested: "human androgen receptor (Homo sapiens, UniProt P10275)"
  answer.label: "group 3"
- molecule: "Cc1sc(N(Cc2cccc(F)c2)c2ccc(C#N)cc2)nc1C(=O)NS(C)(=O)=O"
  system.tested: "human androgen receptor (Homo sapiens, UniProt P10275)"
  answer.label: "group 1"
- molecule: "COc1ccc(F)cc1CN(c1ccc(C#N)cc1)c1nc(C(=O)NS(C)(=O)=O)c(C)s1"
  system.tested: "human androgen receptor (Homo sapiens, UniProt P10275)"
  answer.label: "group 2"
- molecule: "CS(=O)(=O)NC(=O)c1nc(N(Cc2ccc(C(F)(F)F)cc2)c2ccc(C#N)cc2)sc1Cl"
  system.tested: "human androgen receptor (Homo sapiens, UniProt P10275)"
  answer.label: "group 1"
- molecule: "Cc1sc(N(Cc2ccccc2)c2ccc(C#N)c(C(F)(F)F)c2)nc1C(=O)NS(C)(=O)=O"
  system.tested: "human androgen receptor (Homo sapiens, UniProt P10275)"
  answer.label: "group 1"

input: Could you tell me which band Cc1sc(N(CCCC2CCCC2)c2ccc(C#N)cc2)nc1C(=O)NS(C)(=O)=O belongs to?
output: group 1

input: Could you tell me which band Cc1sc(N(CCc2ccc(OC(F)F)cc2)Cc2ccc(F)cc2)nc1C(=O)NS(C)(=O)=O belongs to?
output: group 2

input: Could you tell me which band COCCCS(=O)(=O)NC(=O)c1nc(N(Cc2cnc(C(F)(F)F)c(F)c2)c2ccc(C#N)cc2)sc1C belongs to?
output: group 3

input: Could you tell me which band Cc1sc(N(Cc2ccccc2O)c2ccc(C#N)cc2)nc1C(=O)NS(C)(=O)=O belongs to?
output: group 1

* * *

- system.tested: androgen receptor (AR-LBD) (Rattus norvegicus, UniProt P15207)
- Construct: 5 μL of 2×AR-LBD/Fluoromone AL Red Complex contained in the kit; purchased Invitrogen
- Sequence (P15207 651-882 limits assumed): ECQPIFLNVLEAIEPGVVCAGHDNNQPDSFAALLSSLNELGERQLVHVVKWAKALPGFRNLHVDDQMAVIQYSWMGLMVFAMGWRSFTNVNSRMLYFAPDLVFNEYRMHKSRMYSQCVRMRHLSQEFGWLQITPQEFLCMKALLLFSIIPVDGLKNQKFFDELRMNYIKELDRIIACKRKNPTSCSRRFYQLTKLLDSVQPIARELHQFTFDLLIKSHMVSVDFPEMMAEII
- method.notes: Evaluation of androgen receptor affinity (PolarScreen Androgen Receptor Competitor Assay Kit, Red; fluorescence polarization)
- condition.label: 22° C. for 5 hours, relative to binding rate of 1 μM DHT, read-out: AR affinity (pEC50) (converted)
- Protocol: Evaluation of an Androgen Receptor Affinity To examine the interaction of a compound with an androgen receptor, evaluation was carried out in accordance with the following procedure using PolarScreen™ Androgen Receptor Competitor Assay Kit, Red (Invitrogen). To 2 wells each of a 384 well black plate was added 5 μL of the compound solution. […] After 5 hours of the reaction, fluorescence polarization was measured and the affinity was evaluated. […]
measure.name: EC50 (nM)
Supply the numeric figure in nM, leaving out any unit text.

Use these answered entries as a reference point.
- line.notation: "Cc1sc(N(Cc2ccccc2)C2CCCC2)nc1C(=O)NS(C)(=O)=O"
  system.tested: "androgen receptor (AR-LBD) (Rattus norvegicus, UniProt P15207)"
  unit.annotation: "nM"
  EC50: 631
- line.notation: "Cc1sc(N(Cc2ccc(OC(F)F)cc2F)c2ccc(C#N)cc2)nc1C(=O)NS(C)(=O)=O"
  system.tested: "androgen receptor (AR-LBD) (Rattus norvegicus, UniProt P15207)"
  unit.annotation: "nM"
  EC50: 25.1
- line.notation: "Cc1sc(N(Cc2csc(C(F)(F)F)n2)c2ccc(C#N)cc2)nc1C(=O)NS(C)(=O)=O"
  system.tested: "androgen receptor (AR-LBD) (Rattus norvegicus, UniProt P15207)"
  unit.annotation: "nM"
  EC50: 100
- line.notation: "Cc1sc(N(CCc2cccc(N(C)C)c2)c2ccc(C#N)cc2)nc1C(=O)NS(C)(=O)=O"
  system.tested: "androgen receptor (AR-LBD) (Rattus norvegicus, UniProt P15207)"
  unit.annotation: "nM"
  EC50: 794
- line.notation: "CS(=O)(=O)NC(=O)c1nc(N(Cc2ccc(F)cc2)c2ccc(C(F)(F)F)nc2)sc1Br"
  system.tested: "androgen receptor (AR-LBD) (Rattus norvegicus, UniProt P15207)"
  unit.annotation: "nM"
  EC50: 39.8

input: May I ask what EC50 has been recorded for CCCCCCN(c1ccc(C#N)cc1)c1nc(C(=O)NS(C)(=O)=O)c(C)s1 ?
output: 31.6

input: May I ask what EC50 has been recorded for Cc1sc(N(Cc2ccccc2)c2ccc(-n3cncn3)cc2)nc1C(=O)NS(C)(=O)=O ?
output: 501

input: May I ask what EC50 has been recorded for CS(=O)(=O)NC(=O)c1nc(N(Cc2ccc(F)cc2)c2ccc(C#N)cc2)sc1Cl ?
output: 50.1
